test: Metabolic stability test: liver microsomal stability assay; format: in vitro ADME, mouse; details: mouse liver microsomes 0.5 mg protein/mL, compound 1 µM, absence of NADPH
Starred links: 1 amine or outer side, 2 acyl side, 3 side chain; linkers in the order of their positions; H or OH if unused. Positions of bridges follow the written chain, without caps; N, C: chain ends. Non-standard residues stand in square brackets, D forms with d. Residues, ends and D or L forms follow the SMILES beside them. *: point of attachment. NMeF = CN[C@@H](Cc1ccccc1)C(=O)O; NMeGABA = CN(CCCC(=O)[*:2])[*:1]; hPhe = N[C@@H](CCc1ccccc1)C(=O)O; NMeL = CN[C@@H](CC(C)C)C(=O)O; NMeA = CN[C@@H](C)C(=O)O; Piperidide = C1CCN(*)CC1; Abu = CC[C@H](N)C(=O)O
metric: Mouse Hepatic Microsome CLh,int NADPH(-) (µL/min/mg Protein)
Your answer is read as µL/min/mg Protein, so omit the unit and give the number.

Report Mouse Hepatic Microsome CLh,int NADPH(-) for CC[C@@H]1NC(=O)[C@H](CC(C)C)N(C)C(=O)[C@H](C)NC(=O)[C@@H]2CCCN2C(=O)[C@H]([C@@H](C)CC)NC(=O)[C@H](CC(C)C)N(C)C(=O)[C@H](CCc2ccccc2)NC(=O)CCCN(C)C(=O)C[C@@H](C(=O)N2CCCCC2)NC(=O)[C@H](CC(C)C)N(C)C(=O)[C@H]([C@@H](C)CC)NC(=O)[C@H](C)N(C)C(=O)[C@H]([C@@H](C)O)NC(=O)[C@H](Cc2ccccc2)N(C)C1=O [pd023] ([NMeGABA][hPhe][NMeL]IPA[NMeL][Abu][NMeF]T[NMeA]I[NMeL]D-Piperidide; lactam N-14) please.
26.2

Where do the numbers come from? From patent EP4768499A1.
